Form field: TGI (one value per entry).
- Tested on: SNB-75 CNS
- Experimental Details: NCI tumour cell line growth inhibition, 48 h

Worked cases, TGI given:
Short answer for CC(=C(c1ccccc1)c1ccccc1)N1C(=O)CC(=O)N1C : TGI was > 100 µM

Short answer for CCCCC(=O)c1c(O)nc2sccn2c1=O : TGI was > 10 µM

We now examine a further compound.
Short answer for NS(=O)(=O)c1ccc(/C=C/c2ccc(F)cc2)cc1 : TGI was > 100 µM

----------
- System: K-562 leukemia
- Experimental Details: NCI tumour cell line growth inhibition, 48 h
Form field: TGI (one value per entry).

Short answer for CC1C(=O)N(c2ccccc2)NC12CCCc1ccccc12 (centres undefined) : TGI was > 100 µM

Further cases:
Short answer for OCC(O)C(O)C(O)C(O)c1nc2ccc(Cl)cc2[nH]1 (centres undefined) : TGI was > 100 µM

Short answer for O=C(/C=C/Sc1cc(C(F)(F)F)cc(C(F)(F)F)c1)c1ccc(Cl)cc1 : TGI was 24.6 µM

Short answer for CC(=O)Oc1cc2c(cc1OC(C)=O)OCC(c1ccc(C)cc1)C2 (centres undefined) : TGI was 72.3 µM

Short answer for CCOC(C[C@H](O[Si](C)(C)C(C)(C)C)[C@H]1COC(=S)S1)OCC : TGI was > 100 µM

----------
- System: COLO 205 colon
- Experimental Details: NCI tumour cell line growth inhibition, 48 h; in the data active = GI50 below about 0.43 µM; inactive = the rest
The reply should be one of these categories: active, inactive

## Task Recorded call for Cc1cc([N+](=O)[O-])c(NS(=O)(=O)c2cccc(C(=O)O)c2)cc1-c1cccnc1 ?
## Result inactive

## Task Recorded call for C#CC#CC#CC#CC#CC#CC#CC#CCC1OCC(COC(=O)O[C@@H](C(=O)O[C@H]2C[C@@]3(O)[C@@H](OC(=O)c4ccccc4)[C@@H]4[C@]5(OC(C)=O)CO[C@@H]5C[C@H](O)[C@@]4(C)C(=O)[C@H](OC(C)=O)C(=C2C)C3(C)C)[C@@H](NC(=O)c2ccccc2)c2ccccc2)O1 (stereo partly specified) ?
## Result active

## Task Recorded call for Cc1c(Cl)cccc1C(=O)Nc1nc2c(s1)CN(C(=O)c1ccc(C(F)(F)F)cc1)CC2 ?
## Result active

## Task Recorded call for CCNCCCn1c2c(c3ccc(Cl)cc3c1=O)C(=O)c1cc(OC)cnc1-2 ?
## Result active

## Task Recorded call for O=C1c2cc3c(cc2[C@@H]2[C@H]1c1ccc([N+](=O)[O-])cc1C(=O)N2CCCBr)OCO3 ?
## Result active

## Task Recorded call for COc1ccc2c(c1)c(CC(=O)[Se]C)c(C)n2C(=O)c1ccc(Cl)cc1 ?
## Result inactive

Further cases:
## Task Recorded call for CC(=O)[CH-]C(=O)c1ccccc1.CC(=O)[CH-]C(=O)c1ccccc1.CC[O-].CC[O-].[Hf+4] ?
## Result inactive

## Task Recorded call for Cn1ncnc1[C@H]1c2n[nH]c(=O)c3cc(F)cc(c23)N[C@@H]1c1ccc(F)cc1 ?
## Result inactive

## Task Recorded call for COc1ccc2c(c1)NC1=C(C(=O)OC1)C2c1cc(OC)c2c(c1)OCO2 (stereo unspecified) ?
## Result active

## Task Recorded call for Cc1cc(C)nc(SC2=C(Nc3ccc(C)c(Cl)c3)C(=O)N(Cc3ccccc3)C2=O)n1 ?
## Result inactive

## Task Recorded call for COc1ccc(C/C(C)=C(/c2ccc(OCCN3CCCCC3)cc2)c2ccc(OC(=O)NCc3ccccc3)cc2)cc1 ?
## Result inactive
